Tested on: LG0703-F948-PDC complex spheroid viability
Protocol Notes: Anticancer human tumor LG0703-F948-PDC patient-derived lung adenocarcinoma cell line growth inhibition [RAS]
Assay Setup: second compound 0.03 µM; first compound 0.316 µM; hits give low values

{"Molecule": "Cc1nc(N2CCC3(CC2)COC(C)C3N)c(CO)nc1Sc1ccnc(N)c1Cl (configuration not stated) + CCn1c(-c2cc(N3CCN(C)CC3)cnc2C(C)OC)c2c3cc(ccc31)-c1csc(n1)CC(NC(=O)C1CC1C)C(=O)N1CCCC(N1)C(=O)OCC(C)(C)C2", "viability, T/C": "8.59%"}
{"Molecule": "C=CC(=O)N1CCN(c2nc(OCC3CCCN3C)nc3c(F)c(-c4nc(N)cc(C)c4C(F)(F)F)c(Cl)cc23)C(C)C1 (configuration not stated) + CCn1c(-c2cccnc2C(C)OC)c2c3cc(ccc31)N1CCOC(CC(NC(=O)C(C(C)C)N(C)C(=O)C3(F)CCN(C(=O)C#CC(C)(C)N(C)C)CC3)C(=O)N3CCCC(N3)C(=O)OCC(C)(C)C2)C1", "viability, T/C": "107%"}

---

Tested on: LG0703-F948-PDC complex spheroid viability
Protocol Notes: Anticancer human tumor LG0703-F948-PDC cell line growth inhibition [RAS]; active = viability on the fitted dose curve at most 10% of control; inactive = the rest;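 further: spheroids exposed to agents for 7 days; 100% = DMSO vehicle wells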
Assay Setup: second compound 0.3 µM; first compound 0.01 µM
Classes used: 1 (active), 0 (inactive)

{"Molecule": "Nc1ccn(C2OC(CO)C(O)C2(F)F)c(=O)n1 (configuration not stated) + CCn1c(-c2cccnc2C(C)OC)c2c3cc(ccc31)N1CCOC(CC(NC(=O)C(C(C)C)N(C)C(=O)C3(F)CCN(C(=O)C#CC(C)(C)N(C)C)CC3)C(=O)N3CCCC(N3)C(=O)OCC(C)(C)C2)C1", "Label Value": 0}
{"Molecule": "O=C(c1ccc(F)c(F)c1Nc1ccc(I)cc1F)N1CC(O)([C@@H]2CCCCN2)C1 + CCn1c(-c2cccnc2C(C)OC)c2c3cc(ccc31)N1CCOC(CC(NC(=O)C(C(C)C)N(C)C(=O)C3(F)CCN(C(=O)C#CC(C)(C)N(C)C)CC3)C(=O)N3CCCC(N3)C(=O)OCC(C)(C)C2)C1", "Label Value": 0}
{"Molecule": "C=CC(=O)Nc1cc(Nc2nccc(-c3cn(C)c4ccccc34)n2)c(OC)cc1N(C)CCN(C)C + CCn1c(-c2cccnc2C(C)OC)c2c3cc(ccc31)N1CCOC(CC(NC(=O)C(C(C)C)N(C)C(=O)C3(F)CCN(C(=O)C#CC(C)(C)N(C)C)CC3)C(=O)N3CCCC(N3)C(=O)OCC(C)(C)C2)C1", "Label Value": 0}
{"Molecule": "Nc1ccn(C2OC(CO)C(O)C2(F)F)c(=O)n1 (configuration not stated) + CCn1c(-c2cc(N3CCN(C)CC3)cnc2C(C)OC)c2c3cc(ccc31)-c1csc(n1)CC(NC(=O)C1CC1C)C(=O)N1CCCC(N1)C(=O)OCC(C)(C)C2", "Label Value": 1}
{"Molecule": "CC(C)n1nc(-c2ccc3oc(N)nc3c2)c2c(N)ncnc21 + CCn1c(-c2cccnc2C(C)OC)c2c3cc(ccc31)N1CCOC(CC(NC(=O)C(C(C)C)N(C)C(=O)C3(F)CCN(C(=O)C#CC(C)(C)N(C)C)CC3)C(=O)N3CCCC(N3)C(=O)OCC(C)(C)C2)C1", "Label Value": 0}
{"Molecule": "O=C(c1ccc(F)c(F)c1Nc1ccc(I)cc1F)N1CC(O)([C@@H]2CCCCN2)C1 + CCn1c(-c2cc(N3CCN(C)CC3)cnc2C(C)OC)c2c3cc(ccc31)-c1csc(n1)CC(NC(=O)C1CC1C)C(=O)N1CCCC(N1)C(=O)OCC(C)(C)C2", "Label Value": 1}
{"Molecule": "C=CC(=O)N1CCN(c2nc(OCC3CCCN3C)nc3c(F)c(-c4nc(N)cc(C)c4C(F)(F)F)c(Cl)cc23)C(C)C1 (configuration not stated) + CCn1c(-c2cc(N3CCN(C)CC3)cnc2C(C)OC)c2c3cc(ccc31)-c1csc(n1)CC(NC(=O)C1CC1C)C(=O)N1CCCC(N1)C(=O)OCC(C)(C)C2", "Label Value": 0}
{"Molecule": "CCN1CCN(Cc2ccc(Nc3ncc(F)c(-c4cc(F)c5nc(C)n(C(C)C)c5c4)n3)nc2)CC1 + CCn1c(-c2cccnc2C(C)OC)c2c3cc(ccc31)N1CCOC(CC(NC(=O)C(C(C)C)N(C)C(=O)C3(F)CCN(C(=O)C#CC(C)(C)N(C)C)CC3)C(=O)N3CCCC(N3)C(=O)OCC(C)(C)C2)C1", "Label Value": 0}
{"Molecule": "CC(C)n1nc(-c2ccc3oc(N)nc3c2)c2c(N)ncnc21 + CCn1c(-c2cc(N3CCN(C)CC3)cnc2C(C)OC)c2c3cc(ccc31)-c1csc(n1)CC(NC(=O)C1CC1C)C(=O)N1CCCC(N1)C(=O)OCC(C)(C)C2", "Label Value": 1}
{"Molecule": "CCN1CCN(Cc2ccc(Nc3ncc(F)c(-c4cc(F)c5nc(C)n(C(C)C)c5c4)n3)nc2)CC1 + CCn1c(-c2cc(N3CCN(C)CC3)cnc2C(C)OC)c2c3cc(ccc31)-c1csc(n1)CC(NC(=O)C1CC1C)C(=O)N1CCCC(N1)C(=O)OCC(C)(C)C2", "Label Value": 0}
{"Molecule": "C=CC(=O)N1CCN(c2nc(OCC3CCCN3C)nc3c(F)c(-c4nc(N)cc(C)c4C(F)(F)F)c(Cl)cc23)C(C)C1 (configuration not stated) + CCn1c(-c2cccnc2C(C)OC)c2c3cc(ccc31)N1CCOC(CC(NC(=O)C(C(C)C)N(C)C(=O)C3(F)CCN(C(=O)C#CC(C)(C)N(C)C)CC3)C(=O)N3CCCC(N3)C(=O)OCC(C)(C)C2)C1", "Label Value": 0}
{"Molecule": "C=CC(=O)Nc1cc(Nc2nccc(-c3cn(C)c4ccccc34)n2)c(OC)cc1N(C)CCN(C)C + CCn1c(-c2cc(N3CCN(C)CC3)cnc2C(C)OC)c2c3cc(ccc31)-c1csc(n1)CC(NC(=O)C1CC1C)C(=O)N1CCCC(N1)C(=O)OCC(C)(C)C2", "Label Value": 1}

---

System: LG0703-F948-PDC complex spheroid viability
Protocol Notes: Anticancer human tumor LG0703-F948-PDC cell line growth inhibition [RAS];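 further: spheroids exposed to agents for 7 days; 100% = DMSO vehicle wells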
Assay Setup: second compound 1 µM; first compound 0.0316 µM; hits give low values
Class assignment keyed on viability, T/C, ranges 0 = under 50%, 1 = from 50% up to 80%, 2 = 80% and over

{"Molecule": "Cc1nc(N2CCC3(CC2)COC(C)C3N)c(CO)nc1Sc1ccnc(N)c1Cl (stereo not given) + C#Cc1c(F)ccc2cc(O)cc(-c3ncc4c(N5CC6CCC(C5)N6)nc(OCC56CCCN5CC(F)C6)nc4c3F)c12", "Label Value": 1}
{"Molecule": "Nc1ccn(C2OC(CO)C(O)C2(F)F)c(=O)n1 (stereo not given) + C=CC(=O)N1CCN(c2nc(OCC3CCCN3C)nc3c(F)c(-c4nc(N)cc(C)c4C(F)(F)F)c(Cl)cc23)C(C)C1", "Label Value": 0}
{"Molecule": "O=C(c1ccc(F)c(F)c1Nc1ccc(I)cc1F)N1CC(O)([C@@H]2CCCCN2)C1 + C=CC(=O)N1CCN(c2nc(OCC3CCCN3C)nc3c(F)c(-c4nc(N)cc(C)c4C(F)(F)F)c(Cl)cc23)C(C)C1", "Label Value": 1}
{"Molecule": "Nc1ccn(C2OC(CO)C(O)C2(F)F)c(=O)n1 (stereo not given) + C#Cc1c(F)ccc2cc(O)cc(-c3ncc4c(N5CC6CCC(C5)N6)nc(OCC56CCCN5CC(F)C6)nc4c3F)c12", "Label Value": 0}
{"Molecule": "C[C@@H](NC(=O)c1ncnc(N)c1Cl)c1ncc(C(=O)Nc2cc(C(F)(F)F)c(Cl)cn2)s1 + C=CC(=O)N1CCN(c2nc(OCC3CCCN3C)nc3c(F)c(-c4nc(N)cc(C)c4C(F)(F)F)c(Cl)cc23)C(C)C1", "Label Value": 2}
{"Molecule": "CCN1CCN(Cc2ccc(Nc3ncc(F)c(-c4cc(F)c5nc(C)n(C(C)C)c5c4)n3)nc2)CC1 + C=CC(=O)N1CCN(c2nc(OCC3CCCN3C)nc3c(F)c(-c4nc(N)cc(C)c4C(F)(F)F)c(Cl)cc23)C(C)C1", "Label Value": 2}
{"Molecule": "CC(C)n1nc(-c2ccc3oc(N)nc3c2)c2c(N)ncnc21 + C#Cc1c(F)ccc2cc(O)cc(-c3ncc4c(N5CC6CCC(C5)N6)nc(OCC56CCCN5CC(F)C6)nc4c3F)c12", "Label Value": 0}
{"Molecule": "CCN1CCN(Cc2ccc(Nc3ncc(F)c(-c4cc(F)c5nc(C)n(C(C)C)c5c4)n3)nc2)CC1 + C#Cc1c(F)ccc2cc(O)cc(-c3ncc4c(N5CC6CCC(C5)N6)nc(OCC56CCCN5CC(F)C6)nc4c3F)c12", "Label Value": 1}
